- Test system: HCI16 (cells of a triple-negative basal-like breast cancer xenograft)
- Measurement Description: cell viability (% of vehicle); higher = less cytotoxic
- Condition Context: 10 µM; 72 h
Readout Name: cell viability

Consider CCN1CCN(C(=O)NC(C(=O)NC2C(=O)N3C2SC(C)(C)C3C(=O)[O-])c2ccccc2)C(=O)C1=O.[Na+] (configuration not stated) [Piperacillin Sodium] . Its measured cell viability is 111

Consider CNC(=O)c1cc(Oc2ccc(NC(=O)Nc3ccc(Cl)c(C(F)(F)F)c3)c(F)c2)ccn1.Cl [Regorafenib hydrochloride] . Its measured cell viability is 62.7

Consider O=NN(CCCl)C(=O)NC1CCCCC1 [Lomustine] . Its measured cell viability is 146

Consider CC(C)N=c1cc2n(-c3ccc(Cl)cc3)c3ccccc3nc-2cc1Nc1ccc(Cl)cc1 [Clofazimine] . Its measured cell viability is 77.6

Consider COc1ccc2c(O[C@H]3CC4C(=O)N(C)CCCC/C=C\[C@H]5C[C@@]5(C(=O)NS(=O)(=O)C5CC5)NC(=O)[C@@H]4C3)cc(-c3nc(C(C)C)cs3)nc2c1C (some centres not stated) [Simeprevir] . Its measured cell viability is 28.7

Consider CCCCCCOC(=O)N=C(N)c1ccc(NCc2nc3cc(C(=O)N(CCC(=O)OCC)c4ccccn4)ccc3n2C)cc1.CS(=O)(=O)O [Dabigatran etexilate mesylate] . Its measured cell viability is 94.6

Consider CNC(=O)[C@H](Cc1ccccc1)NC(=O)[C@H](CC(C)C)[C@H](CSc1cccs1)C(=O)NO [Batimastat (BB-94)] . Its measured cell viability is 67

###

- Test system: HCI01 (cells of a triple-negative basal-like breast cancer xenograft)
- Measurement Description: cell viability of combination (% of vehicle); higher = less cytotoxic
- Condition Context: 1 µM; 72 h; partner dose: 10 nM
Readout Name: cell viability of combination
# answer = number (no unit)

Consider CN1CCN(CCOc2cc(OC3CCOCC3)c3c(Nc4c(Cl)ccc5c4OCO5)ncnc3c2)CC1 [Saracatinib (AZD0530)] + CN(C)C/C=C/C(=O)Nc1cc2c(Nc3ccc(F)c(Cl)c3)ncnc2cc1O[C@H]1CCOC1 . Its measured cell viability of combination is 41.1

Consider Clc1ccc(COC(Cn2ccnc2)c2ccc(Cl)cc2Cl)c(Cl)c1.O=[N+]([O-])O (centres undefined) [Miconazole Nitrate] + CN(C)C/C=C/C(=O)Nc1cc2c(Nc3ccc(F)c(Cl)c3)ncnc2cc1O[C@H]1CCOC1 . Its measured cell viability of combination is 63.9

Consider CC(C)(C)c1ccc(C(O)CCCN2CCC(C(O)(c3ccccc3)c3ccccc3)CC2)cc1 (centres undefined) [Terfenadine] + CN(C)C/C=C/C(=O)Nc1cc2c(Nc3ccc(F)c(Cl)c3)ncnc2cc1O[C@H]1CCOC1 . Its measured cell viability of combination is 52.8

Consider CC(C)C1=CC(=C2NNC(=O)N2c2ccc3c(ccn3C)c2)C(=O)C=C1O [Ganetespib (STA-9090)] + CN(C)C/C=C/C(=O)Nc1cc2c(Nc3ccc(F)c(Cl)c3)ncnc2cc1O[C@H]1CCOC1 . Its measured cell viability of combination is 49.1

###

- Test system: WHIM30 (cells of a triple-negative basal-like breast cancer xenograft)
- Measurement Description: cell viability (% of vehicle); higher = less cytotoxic
- Condition Context: 10 µM; 72 h
Readout Name: cell viability

Consider CCCc1nc(C(C)(C)O)c(C(=O)OCc2oc(=O)oc2C)n1Cc1ccc(-c2ccccc2-c2nn[nH]n2)cc1 . Its measured cell viability is 177

Consider Cc1onc(-c2ccccc2Cl)c1C(=O)NC1C(=O)N2C1SC(C)(C)C2C(=O)[O-].O.[Na+] (stereo not drawn) [Cloxacillin Sodium] . Its measured cell viability is 199

Consider CN(C)CCOC(C)(c1ccccc1)c1ccccn1.O=C(O)CCC(=O)O (stereo not drawn) [Doxylamine Succinate] . Its measured cell viability is 104

Consider O=C(O)Cc1ccccc1Nc1c(Cl)cccc1Cl . Its measured cell viability is 92.1

Consider Cc1cc(Nc2cc(N3CCN(C)CC3)nc(Sc3ccc(NC(=O)C4CC4)cc3)n2)n[nH]1 . Its measured cell viability is 142

Consider CC(=O)N(c1onc(C)c1C)S(=O)(=O)c1ccc(N)cc1 . Its measured cell viability is 103

Consider CCNC1CC(C)S(=O)(=O)c2sc(S(N)(=O)=O)cc21.Cl (stereo not drawn) [Dorzolamide HCl] . Its measured cell viability is 89.3

Consider O=C1NC(=O)[C@@H](c2c[nH]c3ccccc23)[C@H]1c1cn2c3c(cccc13)CCC2 [Tivantinib (ARQ 197)] . Its measured cell viability is 147

Consider COC(=O)C1=C(C)NC(C)=C(C(=O)OCCN(C)Cc2ccccc2)C1c1cccc([N+](=O)[O-])c1.Cl (stereo not drawn) [Nicardipine HCl] . Its measured cell viability is 80

Consider CCCCCOc1ccc(-c2cc(-c3ccc(C(=O)NC4CC(O)C(O)NC(=O)C5C(O)C(C)CN5C(=O)C(C(O)CC(N)=O)NC(=O)C(C(O)C(O)c5ccc(O)c(OS(=O)(=O)[O-])c5)NC(=O)C5CC(O)CN5C(=O)C(C(C)O)NC4=O)cc3)no2)cc1.[Na+] (stereo not drawn) [Micafungin sodium] . Its measured cell viability is 99

Consider CN(C)CCC=C1c2ccccc2Sc2ccc(Cl)cc21 . Its measured cell viability is 124

Consider CC1(C)CCC(c2ccc(Cl)cc2)=C(CN2CCN(c3ccc(C(=O)NS(=O)(=O)c4ccc(NC(CCN5CCOCC5)CSc5ccccc5)c(S(=O)(=O)C(F)(F)F)c4)cc3)CC2)C1 (stereo not drawn) . Its measured cell viability is 35.2

Consider Cl.NC1=NCC2c3ccccc3Cc3ccccc3N12 (stereo not drawn) [Epinastine HCl] . Its measured cell viability is 89.3

Consider C=CC[N+]1(C2CC3C4CCC5CC(O)C(N6CCOCC6)CC5(C)C4CCC3(C)C2OC(C)=O)CCCC1.[Br-] (stereo not drawn) [Rocuronium Bromide] . Its measured cell viability is 119

Consider CNCC(O)C(O)C(O)C(O)CO.Cc1c(Nc2ncccc2C(=O)O)cccc1C(F)(F)F . Its measured cell viability is 107

Consider NC(=O)c1ccc(I)c([N+](=O)[O-])c1 . Its measured cell viability is 129

Consider CC(CCC(=O)O)C1CCC2C3C(O)CC4CC(O)CCC4(C)C3CC(O)C12C (stereo not drawn) . Its measured cell viability is 99.9

Consider CCOC(=O)C(CCc1ccccc1)NC(C)C(=O)N1CCCC1C(=O)O.O=C(O)C=CC(=O)O (stereo not drawn) [Enalapril Maleate] . Its measured cell viability is 104

Consider CN(C)c1nc(N(C)C)nc(N(C)C)n1 . Its measured cell viability is 109

Consider Cn1c([N+](=O)[O-])cnc1COC(N)=O . Its measured cell viability is 102

Consider CNCCc1ccccn1.Cl.Cl [Betahistine 2HCl] . Its measured cell viability is 186

Consider CCCCCCCCCCCCCCCCOP(=O)([O-])OCC[N+](C)(C)C . Its measured cell viability is 58.6

Consider CC(C)(C)NCC(O)COc1cccc2c1CCC(O)=N2.Cl (stereo not drawn) [Carteolol HCl] . Its measured cell viability is 116

Consider CC(C(=O)[O-])c1cccc(Oc2ccccc2)c1.CC(C(=O)[O-])c1cccc(Oc2ccccc2)c1.[Ca+2] (stereo not drawn) . Its measured cell viability is 169

Consider CC(C(=O)O)c1ccc2c(c1)CC(=O)c1ccccc1S2 (stereo not drawn) . Its measured cell viability is 82.8

Consider CCC1OC(=O)CC(O)C(C)C(OC2OC(C)C(O)C(N(C)C)C2O)C(CCN2CC(C)CC(C)C2)CC(C)C(=O)C=CC(C)=CC1COC1OC(C)C(O)C(OC)C1OC (stereo not drawn) . Its measured cell viability is 97

Consider O=C(O)C1=COC(OC2OC(CO)C(O)C(O)C2O)C2C(CO)=CCC12 (stereo not drawn) . Its measured cell viability is 143

Consider Cc1ccc(Cl)c(Nc2ccccc2C(=O)[O-])c1Cl.[Na+] [Meclofenamate Sodium] . Its measured cell viability is 144

###

Kindly supply the reported cell viability values for the records listed here.
- Tested on: HCI03 (cells of an ER-positive luminal breast cancer xenograft)
- Measurement Description: cell viability (% of vehicle); higher = less cytotoxic
- Condition Context: 10 µM; 72 h
# answer = number (no unit)

Consider CC(C)c1nc(CN(C)C(=O)NC(CCN2CCOCC2)C(=O)NC(CCC(Cc2ccccc2)NC(=O)OCc2cncs2)Cc2ccccc2)cs1 (stereo not drawn) [Cobicistat (GS-9350)] . Its measured cell viability is 74.2

Consider C=CCNC1=C2CC(C)CC(OC)C(O)C(C)C=C(C)C(OC(N)=O)C(OC)C=CC=C(C)C(=O)NC(=CC1=O)C2=O (stereo not drawn) . Its measured cell viability is 57.1

Consider CCC(C)C(=O)OC1CC(O)C=C2C=CC(C)C(CCC(O)CC(O)CC(=O)[O-])C21.[Na+] (stereo not drawn) [Pravastatin sodium] . Its measured cell viability is 184
